- Subject of test: binding of rSdrG(50-597) to Fg (Staphylococcus epidermidis, UniProt Q9KI13)
- Construct: made in house; host or cells: E. coli Topp3
- Sequence (Q9KI13 50-597): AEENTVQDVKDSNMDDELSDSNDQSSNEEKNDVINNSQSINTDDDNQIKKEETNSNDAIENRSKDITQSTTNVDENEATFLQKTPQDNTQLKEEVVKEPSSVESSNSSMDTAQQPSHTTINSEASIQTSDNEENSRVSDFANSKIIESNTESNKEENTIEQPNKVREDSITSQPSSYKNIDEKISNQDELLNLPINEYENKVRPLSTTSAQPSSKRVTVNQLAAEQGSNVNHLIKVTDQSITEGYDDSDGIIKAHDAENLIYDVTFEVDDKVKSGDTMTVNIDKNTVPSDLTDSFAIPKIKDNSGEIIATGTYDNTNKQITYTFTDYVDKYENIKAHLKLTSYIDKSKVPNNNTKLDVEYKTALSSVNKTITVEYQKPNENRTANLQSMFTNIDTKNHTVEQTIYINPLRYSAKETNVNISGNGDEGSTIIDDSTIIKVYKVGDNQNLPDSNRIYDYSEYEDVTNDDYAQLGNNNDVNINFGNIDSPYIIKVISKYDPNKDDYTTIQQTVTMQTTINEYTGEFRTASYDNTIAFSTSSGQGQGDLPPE
- Assay method text: ELISA: inhibition of rSdrG(50-597) binding to immobilized Fg by synthetic peptides
- Design: species or system S. epidermidis
- Experimental setup: 50 nM rSdrG(50-597) pre-incubated with peptide 1 h
Parameter: inhibition of rSdrG(50-597) binding to Fg

entry_sequence="ADSEGEGDFLAEGGGVR (listed as Staphylococcus epidermidis) [FpA]" value_measured="essentially inactive"
entry_sequence="FSARGHRPLD [β11-20]" value_measured="essentially inactive"

Where do the numbers come from? From patent US6835378B2.
